- protocol-summary: in vivo
- settings: beagle, dog, po, 0.67 mg/kg
quantity-name: half-life (h)
Please state the figure in h; there is no need to write the unit.

Request: For OC[C@H]1O[C@@H](c2ccc(Cl)c(Cc3ccc(OCCOC4CC4)cc3)c2)[C@H](O)[C@@H](O)[C@@H]1O [Bexagliflozin] , what is its reported half-life?
Response: 5.23

* * *

- protocol-summary: in vivo
- settings: beagle, dog, po, 0.67 mg/kg
quantity-name: Cmax (ng/mL)
Please state the figure in ng/mL; there is no need to write the unit.

Request: For OC[C@H]1O[C@@H](c2ccc(Cl)c(Cc3ccc(OCCOC4CC4)cc3)c2)[C@H](O)[C@@H](O)[C@@H]1O , what is its reported Cmax?
Response: 801

* * *

- protocol-summary: in vivo
- settings: beagle, dog, po
quantity-name: half-life

Request: For OC[C@H]1O[C@@H](c2ccc(Cl)c(Cc3ccc(OCCOC4CC4)cc3)c2)[C@H](O)[C@@H](O)[C@@H]1O [Bexagliflozin] , what is its reported half-life?
Response: 1.67 to 5.23 h

* * *

- protocol-summary: in vivo
- settings: beagle, dog, po, 0.067 mg/kg
quantity-name: Vd/F (L/kg)
Please state the figure in L/kg; there is no need to write the unit.

Request: For OC[C@H]1O[C@@H](c2ccc(Cl)c(Cc3ccc(OCCOC4CC4)cc3)c2)[C@H](O)[C@@H](O)[C@@H]1O , what is its reported Vd/F?
Response: 1.06

* * *

- protocol-summary: Solubility
- Assay type: physicochemical
- settings: water at 25° C.
quantity-name: solubility

Request: For OC[C@H]1O[C@@H](c2ccc(Cl)c(Cc3ccc(OCCOC4CC4)cc3)c2)[C@H](O)[C@@H](O)[C@@H]1O , what is its reported solubility?
Response: ~500 µg/mL

* * *

- protocol-summary: in vivo
- settings: beagle, dog, po, 0.02 mg/kg
quantity-name: AUC(0-inf) (ng·h/mL)
Please state the figure in ng·h/mL; there is no need to write the unit.

Request: For OC[C@H]1O[C@@H](c2ccc(Cl)c(Cc3ccc(OCCOC4CC4)cc3)c2)[C@H](O)[C@@H](O)[C@@H]1O , what is its reported AUC(0-inf)?
Response: 45.3

* * *

- protocol-summary: in vivo
- settings: beagle, dog, po, 2 mg/kg
quantity-name: Vd/F (L/kg)
Please state the figure in L/kg; there is no need to write the unit.

Request: For OC[C@H]1O[C@@H](c2ccc(Cl)c(Cc3ccc(OCCOC4CC4)cc3)c2)[C@H](O)[C@@H](O)[C@@H]1O [Bexagliflozin] , what is its reported Vd/F?
Response: 1.37

* * *

- protocol-summary: in vivo
- settings: beagle, dog, po
quantity-name: Tmax

Request: For OC[C@H]1O[C@@H](c2ccc(Cl)c(Cc3ccc(OCCOC4CC4)cc3)c2)[C@H](O)[C@@H](O)[C@@H]1O [Bexagliflozin] , what is its reported Tmax?
Response: ~30 min

* * *

- protocol-summary: in vivo
- settings: beagle, dog, po, 2 mg/kg
quantity-name: AUC(0-inf) (ng·h/mL)
Please state the figure in ng·h/mL; there is no need to write the unit.

Request: For OC[C@H]1O[C@@H](c2ccc(Cl)c(Cc3ccc(OCCOC4CC4)cc3)c2)[C@H](O)[C@@H](O)[C@@H]1O , what is its reported AUC(0-inf)?
Response: 8700
